From: patent US11912693B2

STUDY_SYSTEM: human sphingosine-1-phosphate receptor 1 (S1P1) (Homo sapiens (Human))
Sequence (P21453 whole entry, looked up): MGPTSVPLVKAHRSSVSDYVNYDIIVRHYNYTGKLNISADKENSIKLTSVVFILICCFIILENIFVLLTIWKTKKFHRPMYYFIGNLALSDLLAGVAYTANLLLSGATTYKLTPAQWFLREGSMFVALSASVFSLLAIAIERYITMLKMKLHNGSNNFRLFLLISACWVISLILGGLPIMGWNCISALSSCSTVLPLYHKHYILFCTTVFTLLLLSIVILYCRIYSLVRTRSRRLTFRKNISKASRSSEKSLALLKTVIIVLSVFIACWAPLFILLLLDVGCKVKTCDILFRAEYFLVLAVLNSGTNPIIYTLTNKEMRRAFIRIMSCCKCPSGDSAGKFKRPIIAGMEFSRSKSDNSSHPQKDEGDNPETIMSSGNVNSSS
Sequence (P32121 whole entry partner, looked up): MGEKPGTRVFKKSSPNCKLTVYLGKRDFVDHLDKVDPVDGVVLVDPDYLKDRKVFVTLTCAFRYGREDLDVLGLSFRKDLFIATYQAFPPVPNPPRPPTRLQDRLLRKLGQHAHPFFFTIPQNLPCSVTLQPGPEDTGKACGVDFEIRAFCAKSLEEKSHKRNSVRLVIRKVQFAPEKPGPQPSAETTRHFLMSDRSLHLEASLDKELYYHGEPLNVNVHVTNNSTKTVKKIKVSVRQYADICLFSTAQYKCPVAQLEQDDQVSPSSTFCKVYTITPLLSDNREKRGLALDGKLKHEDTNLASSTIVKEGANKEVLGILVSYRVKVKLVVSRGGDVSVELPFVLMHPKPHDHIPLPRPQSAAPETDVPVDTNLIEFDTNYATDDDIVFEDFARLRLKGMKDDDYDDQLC
PROCEDURE_TEXT: β-Arrestin2 recruitment assay (PathHunter), S1P1 CHO-K1 cells
Type: cell-based
REPORTED_CONDITIONS: β-arrestin2 recruitment, S1P1 CHO-K1 cells
EXPERIMENTAL_READOUT: hS1P1 B-arrestin2 pEC50

These solved cases illustrate the format of a correct answer.
INSERT INTO assay_data (input_smiles, study_system, reported_value) VALUES
  ('O=C1CC2(CCCCC2)Oc2ccc(-c3nc(-c4ccncc4)no3)cc21', 'human sphingosine-1-phosphate receptor 1 (S1P1) (Homo sapiens (Human))', '<5'),
  ('N#Cc1cc(-c2nnc(-c3ccc4[nH]ncc4c3)o2)ccc1NCCF', 'human sphingosine-1-phosphate receptor 1 (S1P1) (Homo sapiens (Human))', '>5'),
  ('N#Cc1cc(-c2nc(-c3ccc4c(c3)CC(=O)N4)no2)ccc1NCC1CC1', 'human sphingosine-1-phosphate receptor 1 (S1P1) (Homo sapiens (Human))', '>5'),
  ('CC(C)n1nnc2cc(-c3noc(C4CCC4)n3)ccc21', 'human sphingosine-1-phosphate receptor 1 (S1P1) (Homo sapiens (Human))', '<5'),
  ('Cn1cnc2ccc(-c3nnc(-c4ccc(NCC(F)(F)CO)c(C#N)c4)o3)cc21', 'human sphingosine-1-phosphate receptor 1 (S1P1) (Homo sapiens (Human))', '>5');

Please state hS1P1 B-arrestin2 pEC50 for every compound in the list that follows.
1. Cc1ccccc1-c1noc(-c2ccc3c(c2)nnn3CC2CC2)n1
2. CCC1(CC)CC(=O)c2cc(-c3nc(-c4ccc5[nH]c(=O)oc5c4)no3)ccc2O1
3. CC(C)n1nnc2cc(-c3nc4c(o3)COc3ccccc3-4)ccc21
4. CN1C(=O)CCc2cc(-c3nc(-c4cccnc4)no3)ccc21

Reply text:
1: <5; 2: >5; 3: <5; 4: <5

For every listed record, write down its hS1P1 B-arrestin2 pEC50.
1. CC(C)Oc1ccccc1-c1noc(-c2ccc3c(c2)nnn3C(C)C)n1
2. CC(C)(O)Cn1nnc2cc(-c3nc(-c4ccc5nc[nH]c5c4)no3)ccc21
3. CC(C)(CO)Cn1nnc2cc(-c3noc(-c4cnccc4C(F)(F)F)n3)ccc21

Reply text:
1. <5
2. <5
3. >5
